Where do the numbers come from? From ChEMBL document CHEMBL1155462.

test system: LNCaP; assay: Inhibition of prostate specific antigen expression in human LNCAP cells at 0.625 to 20 uM in presence of fetal bovine serum; type: functional, cell-based
Activity calls are given as the source filed them. No cut-off for these calls is given here.
// one of active, inactive, no free text

{"cpd_smiles": "CC1(C)C(=O)N(c2ccc(C#N)c(C(F)(F)F)c2)C(=S)N1CCCN=[N+]=[N-]", "class_label": "active"}

Exam item: Hey, what did the test say about Cc1ccc(N2C(=S)N(c3ccc(C#N)c(C(F)(F)F)c3)C(=O)C23CCCCCC3)cc1 ?
Marked response: inactive

Exam item: Proceed to CC1(C)C(=O)N(c2ccc(C#N)c(C(F)(F)F)c2)C(=S)N1c1ccccc1
Marked response: active

Exam item: Proceed to Cc1ccc(N2C(=S)N(c3ccc(C#N)c(C(F)(F)F)c3)C(=O)C2(C)C)cc1
Marked response: active

Exam item: Proceed to CC1(C)C(=O)N(c2ccc(C#N)c(C(F)(F)F)c2)C(=S)N1c1ccc(N=[N+]=[N-])cc1
Marked response: active

Exam item: Proceed to Cc1ccc(N2C(=S)N(c3ccc(C#N)c(C(F)(F)F)c3)C(=O)C23CCN(C)CC3)cc1
Marked response: inactive

Exam item: Proceed to CC1(C)C(=O)N(c2ccc(C#N)c(C(F)(F)F)c2)C(=S)N1CCCCCN=[N+]=[N-]
Marked response: active

Exam item: Proceed to CC1(C)C(=O)N(c2ccc(C#N)c(C(F)(F)F)c2)C(=S)N1c1ccc(O)cc1
Marked response: active
